# method_notes: Clearance in monkey liver microsomes at 1 uM after 60 mins in presence of NADPH by UPLC analysis
# Type: ADME, Macaca mulatta, microsome
# condition_label: rhesus monkey, read-out: CLH
quantity: microsomal CLint at 1 µM (µL/min/mg)
Record the value in µL/min/mg, omitting the unit from your answer.

Qu. Tell us which microsomal CLint at 1 µM value is on record for CC[C@H]1[C@@H](O)CC(=O)N1c1ccc(C#N)c(C(F)(F)F)c1
Ans. 5

###

# method_notes: Total clearance in Beagle dog at 0.1 mg/kg, iv by LC-MS/MS analysis
# Format: ADME, organism-based, Canis lupus familiaris
# condition_label: in vivo
quantity: clearance

Qu. Tell us which clearance value is on record for CC[C@H]1[C@@H](O)CC(=O)N1c1ccc(C#N)c(C(F)(F)F)c1
Ans. 11.3 mL/min/kg

###

# method_notes: AUC (0 to 24 hrs) in Crl:CD(SD) rat at 0.1 mg/kg, iv by LC-MS/MS analysis
# Assay type: ADME, organism-based
# Parameters: dose 0.1 mg/kg, time < 24 hr, route intravenous
# condition_label: in vivo
quantity: AUC(0-t) at 24 h

Qu. Tell us which AUC(0-t) at 24 h value is on record for CC[C@H]1[C@@H](O)CC(=O)N1c1ccc(C#N)c(C(F)(F)F)c1
Ans. 0.108 µg·h/mL

###

# method_notes: Clearance in rat liver microsomes at 1 uM after 15 mins in presence of NADPH by UPLC analysis
# Format: ADME, microsome
# condition_label: read-out: CLH
For each of the molecules below, state its microsomal CLint at 1 µM.
Record the value in µL/min/mg, omitting the unit from your answer.

Qu. Tell us which microsomal CLint at 1 µM value is on record for CC[C@H]1[C@H](O)CC(=O)N1c1ccc(C#N)c(Cl)c1
Ans. 1

Qu. Tell us which microsomal CLint at 1 µM value is on record for C[C@@H]1C(=O)N(c2ccc(C#N)c(Cl)c2)[C@@H](C)[C@H]1O
Ans. 4

Qu. Tell us which microsomal CLint at 1 µM value is on record for CC(C)C[C@H]1[C@@H](O)CC(=O)N1c1ccc(C#N)c(Cl)c1
Ans. 41

Qu. Tell us which microsomal CLint at 1 µM value is on record for CC[C@H]1[C@@H](O)[C@H](C)C(=O)N1c1ccc(C#N)c(Cl)c1
Ans. 6

Qu. Tell us which microsomal CLint at 1 µM value is on record for C[C@H]1[C@@H](O)[C@H](Cc2ccccc2)C(=O)N1c1ccc(C#N)c(Cl)c1
Ans. 220

Qu. Tell us which microsomal CLint at 1 µM value is on record for CC[C@H]1[C@@H](O)CC(=O)N1c1ccc(C#N)c(OC)c1
Ans. 20

Qu. Tell us which microsomal CLint at 1 µM value is on record for Cc1c(N2CC[C@H](O)[C@@H]2C)ccc(C#N)c1Cl
Ans. 230

Qu. Tell us which microsomal CLint at 1 µM value is on record for Cc1c(N2CC[C@](C)(O)[C@@H]2C)ccc(C#N)c1F
Ans. 44

Qu. Tell us which microsomal CLint at 1 µM value is on record for Cc1c(N2C(=O)C[C@H](O)[C@@H]2C)ccc(C#N)c1Cl
Ans. 16

Qu. Tell us which microsomal CLint at 1 µM value is on record for C[C@H]1[C@@H](O)C(C)(C)C(=O)N1c1ccc(C#N)c(Cl)c1
Ans. 8

Qu. Tell us which microsomal CLint at 1 µM value is on record for CC[C@H]1[C@@H](O)CC(=O)N1c1ccc(C#N)c(Cl)c1
Ans. 24

Qu. Tell us which microsomal CLint at 1 µM value is on record for C[C@H]1[C@@H](O)CC(=O)N1c1ccc(C#N)c(Cl)c1
Ans. 13

Qu. Tell us which microsomal CLint at 1 µM value is on record for C[C@@H]1N(c2ccc(C#N)c(Cl)c2)C(=O)C[C@]1(C)O
Ans. 8

Qu. Tell us which microsomal CLint at 1 µM value is on record for CC[C@@H]1C(=O)N(c2ccc(C#N)c(Cl)c2)[C@@H](C)[C@H]1O
Ans. 32
